B1: ZNF232 (parent)
chain: HSGEKPFICKECGKAYGWCSELIR

Variants of: B1
assay.summary: protein stability index of a GFP-peptide fusion (GPS, HEK-293T) (PSI 1-6); higher = more stable;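 note: lentivirally expressed fusions sorted by FACS into six bins by GFP to DsRed ratio, PSI derived from sequencing read proportions per bin multiplied by bin number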
setup.conditions: c terminus: a fixed tail appended
Recorded measurements of protein stability index, one per entry

Consider the worked cases shown below.
K14I | 2.04
E21R | 1.99

### Prompt Specify reported protein stability index for the variant shown: E4N
### Response 1.95
